- TARGET OR SYSTEM: Beta-3 Adrenergic Receptor (Homo sapiens (Human), UniProt P13945)
- Sequence (P13945 whole entry, species assumed): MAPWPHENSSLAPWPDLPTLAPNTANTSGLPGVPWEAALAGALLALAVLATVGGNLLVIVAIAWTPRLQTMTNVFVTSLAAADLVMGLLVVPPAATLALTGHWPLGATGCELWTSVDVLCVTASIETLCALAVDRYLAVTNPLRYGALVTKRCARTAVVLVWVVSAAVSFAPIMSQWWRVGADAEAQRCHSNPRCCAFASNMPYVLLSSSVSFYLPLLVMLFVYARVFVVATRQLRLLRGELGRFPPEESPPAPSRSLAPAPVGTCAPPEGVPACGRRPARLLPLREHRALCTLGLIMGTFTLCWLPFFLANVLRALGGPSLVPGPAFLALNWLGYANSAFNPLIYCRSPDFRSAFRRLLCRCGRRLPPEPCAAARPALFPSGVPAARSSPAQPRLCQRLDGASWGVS
- ASSAY DETAILS: HTRF cAMP antagonist assay (IC50 determination)
- CONDITION PARAMETERS: CHO-K1 cells stably expressing recombinant receptor; antagonism of isoproterenol at EC90; cAMP readout
pIC50: −log10 of the molar value.
Quick rule for you: pIC50 at 7 or higher means 1 (yes), lower means 0 (no).

Look over these answered cases.
- CS(=O)(=O)c1cccc(OC[C@@H](O)CNC2COC3(CCN(S(=O)(=O)c4cc5ccccc5o4)CC3)C2)c1 (stereo partly drawn): 1 (yes)
- CS(=O)(=O)c1cccc(OC[C@@H](O)CNC2COC3(CCN(S(=O)(=O)c4cccc(C#N)c4)CC3)C2)c1 (stereo partly drawn): 1 (yes)
- O=S(=O)(c1cccc(OC[C@@H](O)CN[C@H]2COC3(CCN(S(=O)(=O)c4c[nH]c5ncccc45)CC3)C2)c1)C1CC1: 1 (yes)
- NC(=O)CCS(=O)(=O)c1cccc(OC[C@@H](O)CN[C@H]2COC3(CCN(S(=O)(=O)c4ccc5ncccc5c4)CC3)C2)c1: 0 (no)
- CN1CCOc2cc(S(=O)(=O)N3CCC4(CC3)C[C@@H](NC[C@H](O)COc3cccc(S(=O)(=O)C5(CO)CC5)c3)CO4)cnc21: 1 (yes)

Task: I'd appreciate it if you could say whether O=C(O)CS(=O)(=O)c1cccc(OC[C@@H](O)CN[C@H]2COC3(CCN(S(=O)(=O)c4cnc5ccccc5c4)CC3)C2)c1 has pIC50 at least equal to 7.
Output: 0 (no)

----------
- TARGET OR SYSTEM: Beta-3 Adrenergic Receptor (Homo sapiens (Human))
- ASSAY DETAILS: HTRF cAMP antagonist assay (IC50 determination)
- CONDITION PARAMETERS: CHO-K1 cells stably expressing recombinant receptor; antagonism of isoproterenol at EC90; cAMP readout
log10(IC50) by entry:
The figures below represent log10 of IC50, where IC50 is stated in nM.

• CCCn1cc(-c2cccc(S(=O)(=O)N3CCC4(CC3)CC(NC[C@H](O)COc3cccc(S(C)(=O)=O)c3)CO4)c2)cn1 (stereo partly drawn) = 0.60
• O=S(=O)(CCCO)c1cccc(OC[C@@H](O)CN[C@H]2COC3(CCN(S(=O)(=O)c4cnc5ccccc5c4)CC3)C2)c1 = 1.95
• Cc1cccc(S(=O)(=O)N2CCC3(CC2)CC(NC[C@H](O)COc2cccc(S(C)(=O)=O)c2)CO3)c1 (stereo partly drawn) = 1.66
• O=S(=O)(c1cccc(-c2ccc(CN3CCOCC3)cc2)c1)N1CCC2(CC1)C[C@@H](NC[C@H](O)COc1cccc(S(=O)(=O)C3(CO)CC3)c1)CO2 = 3.11
• CS(=O)(=O)c1cccc(OC[C@@H](O)CNC2COC3(CCN(S(=O)(=O)c4cccc(Br)c4)CC3)C2)c1 (stereo partly drawn) = 1.33

Consider the additional compound presented here.
Task: Form: Entry = CCOc1ccc(-c2ccc(CN)cc2)cc1S(=O)(=O)N1CCC2(CC1)C[C@H](NC[C@H](O)COc1cccc(S(=O)(=O)C(C)C)c1)CO2 | System = Beta-3 Adrenergic Receptor (Homo sapiens (Human)) | log10(IC50) = ____
Output: 1.22

----------
- TARGET OR SYSTEM: Beta-3 Adrenergic Receptor (Homo sapiens (Human))
- ASSAY DETAILS: HTRF cAMP antagonist assay (IC50 determination)
- CONDITION PARAMETERS: CHO-K1 cells stably expressing recombinant receptor; antagonism of isoproterenol at EC90; cAMP readout
ATTRIBUTE MEASURED: IC50 (nM)
Answer format: numeric, nM implied, no suffix.

• CS(=O)(=O)c1cccc(OC[C@H](O)CNC2COC3(CCN(S(=O)(=O)c4ccc5ccccc5c4)CC3)C2)c1 (stereo partly drawn) = 44.8
• CCn1cc(S(=O)(=O)N2CCC3(CC2)C[C@@H](NC[C@H](O)COc2cccc(S(=O)(=O)C4(CO)CC4)c2)CO3)c(=O)c2ccccc21 = 90.2
• CCOc1ccc(-c2ccc(C3(N)CC3)cc2)cc1S(=O)(=O)N1CCC2(CC1)C[C@@H](NC[C@H](O)COc1cccc(S(=O)(=O)C3CC3)c1)CO2 = 41.8
• C[C@@H]1CN(C)c2cc(S(=O)(=O)N3CCC4(CC3)C[C@@H](NC[C@H](O)COc3cccc(S(=O)(=O)C5(CO)CC5)c3)CO4)cnc2O1 = 68.9
• NCc1ccc(-c2ccc(F)c(S(=O)(=O)N3CCC4(CC3)C[C@@H](NC[C@H](O)COc3cccc(S(=O)(=O)C5(CO)CC5)c3)CO4)c2)cc1 = 17.5
• O=S(=O)(CCO)c1cccc(OC[C@@H](O)CN[C@H]2COC3(CCN(S(=O)(=O)c4ccc5ccccc5c4)CC3)C2)c1 = 20.3

Task: Given the entry CCOc1ccc(-c2ccc(CN)c(F)c2)cc1S(=O)(=O)N1CCC2(CC1)C[C@H](NC[C@H](O)COc1cccc(S(=O)(=O)C3(CO)CC3)c1)CO2 , report its measured IC50.
Output: 27.5

Task: For the compound shown here, COCCNCc1ccc(-c2cccc(S(=O)(=O)N3CCC4(CC3)C[C@H](NC[C@H](O)COc3cccc(S(=O)(=O)C5(CO)CC5)c3)CO4)c2)cc1 , give the reported IC50.
Output: 33.5

Task: Given the compound NCc1ccc(-c2cncc(S(=O)(=O)N3CCC4(CC3)C[C@@H](NC[C@H](O)COc3cccc(S(=O)(=O)CCO)c3)CO4)c2)cc1 , what is its reported IC50?
Output: 110

Task: Consider the compound CCn1cc(S(=O)(=O)N2CCC3(CC2)C[C@@H](NC[C@H](O)COc2cccc(S(=O)(=O)C(C)(C)CO)c2)CO3)c(=O)c2ccccc21 and give its measured IC50.
Output: 110

Task: Could you tell me which IC50 is on file for CC(C)CNCc1ccc(-c2cccc(S(=O)(=O)N3CCC4(CC3)CC(NC[C@H](O)COc3cccc(S(C)(=O)=O)c3)CO4)c2)cc1 (stereo partly drawn) ?
Output: 27.8

Task: For COCS(=O)(=O)c1cccc(OC[C@@H](O)CN[C@H]2COC3(CCN(S(=O)(=O)c4cnc5ccccc5c4)CC3)C2)c1 , what is its reported IC50?
Output: 11.6

----------
// reported IC50 per item
- TARGET OR SYSTEM: Beta-3 Adrenergic Receptor (Homo sapiens (Human))
- ASSAY DETAILS: HTRF cAMP antagonist assay (IC50 determination)
- CONDITION PARAMETERS: CHO-K1 cells stably expressing recombinant receptor; antagonism of isoproterenol at EC90; cAMP readout
Give just the number in nM; leave the unit off.

Past entries and their recorded results:
- C[C@H]1CN(C)c2cc(S(=O)(=O)N3CCC4(CC3)C[C@@H](NC[C@H](O)COc3cccc(S(=O)(=O)CC(N)=O)c3)CO4)cnc2O1: 586
- CC(C)S(=O)(=O)c1cccc(OC[C@@H](O)CNC2COC3(CCN(S(=O)(=O)c4ccc5ccccc5c4)CC3)C2)c1 (stereo partly drawn): 12.1
- COc1ccc(S(=O)(=O)N2CCC3(CC2)C[C@H](NC[C@H](O)COc2cccc(S(=O)(=O)C(F)(F)CO)c2)CO3)cc1-c1ccc(CN)cc1: 22.8
- O=S(=O)(c1cnc2cccn2c1)N1CCC2(CC1)C[C@@H](NC[C@H](O)COc1cccc(S(=O)(=O)C3(CO)CC3)c1)CO2: 696
- Cc1c(-c2ccc(CN)cc2)cccc1S(=O)(=O)N1CCC2(CC1)C[C@@H](NC[C@H](O)COc1cccc(S(=O)(=O)C3(CO)CC3)c1)CO2: 1110

Task: Could you share which IC50 value was measured for CC(C)S(=O)(=O)c1cccc(OC[C@@H](O)CN[C@H]2COC3(CCN(S(=O)(=O)c4cnc5c(F)cccc5c4O)CC3)C2)c1 ?
Output: 49.6

Task: Would you mind telling me what IC50 value was observed for CCOc1ccc(-c2ccc(CN)cc2)cc1S(=O)(=O)N1CCC2(CC1)C[C@H](NC[C@H](O)COc1cccc(S(=O)(=O)C3(CO)CC3)c1)CO2 ?
Output: 17.3

Task: Dear colleague, I am looking for the recorded IC50 of the following molecule: CCn1cc(S(=O)(=O)N2CCC3(CC2)C[C@@H](NC[C@H](O)COc2cccc(S(C)(=O)=O)c2)CO3)c(=O)c2ccccc21
Output: 37.6

Task: Requested field: IC50. Item: CCS(=O)(=O)c1cccc(OC[C@@H](O)CN[C@H]2COC3(CCN(S(=O)(=O)c4cnc5ccccc5c4)CC3)C2)c1
Output: 7.81

Task: IC50 for CCn1cc(S(=O)(=O)N2CCC3(CC2)C[C@@H](NC[C@H](O)COc2cccc(S(=O)(=O)COC)c2)CO3)c(=O)c2ccccc21 ?
Output: 62.9
